test system: SW-620; test: Inhibitory concentration against SW620 colorectal carcinoma cell line in MTS assay; type: functional, cell-based, Homo sapiens; conditions: Homo sapiens, SW-620
property name: IC50 (µM)
Give just the numeric value; µM need not be written.

Fill in the blank: the reported IC50 of CN1C(=O)c2c(c3c4ccccc4n(C4OC(CO)C(O)C(O)C4O)c3c3[nH]c4ccccc4c23)C1=O (centres undefined) is ____. 5

Fill in the blank: the reported IC50 of CN1C(=O)c2c(c3c4ccccc4n(C4CC(O)C(O)C(CO)O4)c3c3[nH]c4ccccc4c23)C1=O (centres undefined) is ____. 13

----------
system: SW-620; test: Inhibitory concentration against SW620 colorectal carcinoma cell line in MTS assay; format: functional, cell-based, Homo sapiens; details: Homo sapiens, SW-620
property name: pIC50
pIC50 is defined as minus the log10 of a concentration measured in mol/L.

Request body: readout pIC50, system SW-620, query "CO[C@H]1[C@H](O)[C@@H](O)[C@H](n2c3c(Cl)cccc3c3c4c(c5c6cccc(Cl)c6[nH]c5c32)C(=O)NC4=O)O[C@@H]1CO" . Return the value. 5.40

Request body: readout pIC50, system SW-620, query CC1OC(n2c3ccccc3c3c4c(c5c6ccccc6[nH]c5c32)C(=O)N(C)C4=O)CC(O)C1O (stereo in doubt; 5) . Return the value. 4.62

Request body: readout pIC50, system SW-620, query CC1OC(n2c3ccccc3c3c4c(c5c6ccccc6[nH]c5c32)C(=O)OC4=O)CC(NCc2ccccc2)C1O (configuration not stated) . Return the value. 4.12

Request body: readout pIC50, system SW-620, query O=C1c2c(c3c4ccccc4n(C4OC(CO)C(O)C(O)C4O)c3c3[nH]c4ccccc4c23)C(=O)N1CCCn1ccnc1 (configuration not stated) . Return the value. 5.70

Where do the numbers come from? From ChEMBL document CHEMBL1143577.
